Test system: 885724-159-R-J1-PDC complex spheroid viability;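 also: spheroids exposed to agents for seven days before readout; percent of vehicle control viability where 100% = DMSO wells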
Test: Anticancer human tumor 885724-159-R-J1-PDC patient-derived pancreatic adenocarcinoma cell line growth inhibition [GQUAD]
Conditions: second compound 0.0316 µM; first compound 0.000999 µM; active compounds read low
PROPERTY_MEASURED: viability, T/C (%)
Output spec: scalar in %, unitless text.

The examples below pair each entry with its known result.
[
  {
    "COMPOUND": "Cn1ncnc1[C@H]1c2n[nH]c(=O)c3cc(F)cc(c23)N[C@@H]1c1ccc(F)cc1 + Cc1cnc(CNC(=O)c2c(=O)c3ccc(N4CCCN(C)CC4)nc3n3c2sc2ccccc23)cn1",
    "TARGET_DESC": "885724-159-R-J1-PDC complex spheroid viability",
    "viability, T/C, %": 90.3
  },
  {
    "COMPOUND": "CCc1c2c(nc3ccc(O)cc13)-c1cc3c(c(=O)n1C2)COC(=O)[C@]3(O)CC + Cc1cnc(CNC(=O)c2c(=O)c3ccc(N4CCCN(C)CC4)nc3n3c2sc2ccccc23)cn1",
    "TARGET_DESC": "885724-159-R-J1-PDC complex spheroid viability",
    "viability, T/C, %": 101
  },
  {
    "COMPOUND": "Cn1ncnc1[C@H]1c2n[nH]c(=O)c3cc(F)cc(c23)N[C@@H]1c1ccc(F)cc1 + CN(C)c1ccc(Nc2c3ccc(NC(=O)CCN4CCCC4)cc3nc3cc(NC(=O)CCN4CCCC4)ccc23)cc1",
    "TARGET_DESC": "885724-159-R-J1-PDC complex spheroid viability",
    "viability, T/C, %": 99
  }
]

Task item: Provide only the value of recorded viability, T/C for Cn1ncnc1[C@H]1c2n[nH]c(=O)c3cc(F)cc(c23)N[C@@H]1c1ccc(F)cc1 + Cc1[nH]c2ccc(F)cc2c1-c1nc2c3cccnc3c3ncccc3c2[nH]1
Reply: 104

Task item: Provide only the value of recorded viability, T/C for CC[C@@]1(O)C(=O)OCc2c1cc1n(c2=O)Cc2cc3c(CN(C)C)c(O)ccc3nc2-1 + Cc1cnc(CNC(=O)c2c(=O)c3ccc(N4CCCN(C)CC4)nc3n3c2sc2ccccc23)cn1
Reply: 117

Task item: Provide only the value of recorded viability, T/C for Cc1[nH]c2ccccc2c1CCNCc1ccc(/C=C/C(=O)NO)cc1 + CN(C)c1ccc(Nc2c3ccc(NC(=O)CCN4CCCC4)cc3nc3cc(NC(=O)CCN4CCCC4)ccc23)cc1
Reply: 103

Task item: Provide only the value of recorded viability, T/C for Cc1[nH]c2ccccc2c1CCNCc1ccc(/C=C/C(=O)NO)cc1 + Cc1[nH]c2ccc(F)cc2c1-c1nc2c3cccnc3c3ncccc3c2[nH]1
Reply: 87
